All figures here come from patent US20220125051A1.

- Tested on: Lolium perenne (LOLPE)
- Protocol Description: Post-emergence efficacy, Method A
- Assay type: in vivo
- Conditions Used: Lolium perenne, post-emergence, 312 h, Application rate 500 g/Ha; evaluated after 13 days; 100=total damage to plant, 0=no damage to plant; read-out: Control of weed species after post-emergence application, LOLPE
Each entry below carries its reported pest or weed control at 500 g/ha.
Property: pest or weed control at 500 g/ha (%)

{"columns": ["Compound", "Target Of Assay", "Property", "Assay Result"],
 "data": [
  ["Cc1nc(-c2cc[n+](CCS(=O)(=O)[O-])nc2)ncc1Cl [Compound A99]", "Lolium perenne (LOLPE)", "pest or weed control at 500 g/ha", 20],
  ["Cc1cc(C)nc(-c2cc[n+](CCS(=O)(=O)[O-])nc2)n1 [Compound A48]", "Lolium perenne (LOLPE)", "pest or weed control at 500 g/ha", 70],
  ["O=S(=O)([O-])CC[n+]1ccc(-c2ccc(C(F)(F)F)nn2)cn1 [Compound A122]", "Lolium perenne (LOLPE)", "pest or weed control at 500 g/ha", 70],
  ["O=c1cc(-c2cc[n+](CCS(=O)(=O)[O-])nc2)nc[nH]1 [Compound A57]", "Lolium perenne (LOLPE)", "pest or weed control at 500 g/ha", 10],
  ["CS(=O)(=O)c1cnc(-c2cc[n+](CCC(=O)[O-])nc2)nc1 [Compound A46]", "Lolium perenne (LOLPE)", "pest or weed control at 500 g/ha", 20],
  ["O=S(=O)([O-])CC[n+]1ccc(-c2ccccn2)cn1 [Compound A64]", "Lolium perenne (LOLPE)", "pest or weed control at 500 g/ha", 80],
  ["CN(C)c1cnc(-c2cc[n+](CCS(=O)(=O)[O-])nc2)nc1 [Compound A18]", "Lolium perenne (LOLPE)", "pest or weed control at 500 g/ha", 10],
  ["COc1ccc(-c2cc[n+](CCCS(=O)(=O)[O-])nc2)nn1 [Compound A115]", "Lolium perenne (LOLPE)", "pest or weed control at 500 g/ha", 30],
  ["Cc1cncc(-c2cc[n+](CCC(=O)O)nc2)n1 [Compound A85]", "Lolium perenne (LOLPE)", "pest or weed control at 500 g/ha", 70],
  ["CN(C)c1ccnc(-c2cc[n+](CCC(=O)[O-])nc2)n1 [Compound A45]", "Lolium perenne (LOLPE)", "pest or weed control at 500 g/ha", 30],
  ["O=C(O)CC[n+]1ccc(-c2ccc(C(F)(F)F)nn2)cn1 [Compound A126]", "Lolium perenne (LOLPE)", "pest or weed control at 500 g/ha", 70],
  ["O=C(O)CC[n+]1ccc(-c2cc(C(F)(F)F)ncn2)cn1 [Compound A119]", "Lolium perenne (LOLPE)", "pest or weed control at 500 g/ha", 30],
  ["O=S(=O)([O-])CC[n+]1ccc(-c2cccc(C(F)(F)F)n2)cn1 [Compound A74]", "Lolium perenne (LOLPE)", "pest or weed control at 500 g/ha", 60],
  ["O=S(=O)([O-])CCC[n+]1ccc(-c2ccc(O)nn2)cn1 [Compound A52]", "Lolium perenne (LOLPE)", "pest or weed control at 500 g/ha", 10],
  ["COc1ccnc(-c2cc[n+](CCC(=O)[O-])nc2)n1 [Compound A101]", "Lolium perenne (LOLPE)", "pest or weed control at 500 g/ha", 70],
  ["Cc1n[n+](CCC(=O)O)ccc1-c1ncccn1.O=C([O-])C(F)(F)F [Compound A132]", "Lolium perenne (LOLPE)", "pest or weed control at 500 g/ha", 50],
  ["CC(C)(C[n+]1ccc(-c2ncccn2)cn1)S(=O)(=O)[O-] [Compound A114]", "Lolium perenne (LOLPE)", "pest or weed control at 500 g/ha", 70],
  ["O=C([O-])CC[n+]1ccc(-c2cccc(C(F)(F)F)n2)cn1 [Compound A73]", "Lolium perenne (LOLPE)", "pest or weed control at 500 g/ha", 40],
  ["O=C([O-])CC[n+]1ccc(-c2nccc(C(F)(F)F)n2)cn1 [Compound A39]", "Lolium perenne (LOLPE)", "pest or weed control at 500 g/ha", 60]
]}

====

- System: Euphorbia heterophylla (EPHHL)
- Protocol Description: Post-emergence efficacy, Method A
- Format: in vivo
- Conditions Used: Euphorbia heterophylla, post-emergence, 312 h; Application rate 500 g/Ha; evaluated after 13 days; 100=total damage to plant, 0=no damage to plant; read-out: Control of weed species after post-emergence application, EPHHL
Each entry below carries its reported pest or weed control at 500 g/ha.

{"columns": ["Structure String", "pest or weed control at 500 g/ha"],
 "data": [
  ["O=S(=O)([O-])CC[n+]1ccc(-c2ncccc2F)cn1", "100%"],
  ["O=S(=O)([O-])CCC[n+]1ccc(-c2cnc(F)cn2)cn1", "40%"],
  ["O=S(=O)([O-])CC[n+]1ccc(-c2ncccc2Cl)cn1", "20%"],
  ["Cc1nccc(-c2cc[n+](CCC(=O)O)nc2)n1", "70%"],
  ["COC(=O)CC[n+]1ccc(-c2cccnn2)cn1", "90%"],
  ["Cc1cnc(-c2cc[n+](CCS(=O)(=O)[O-])nc2)c(F)c1", "50%"],
  ["CS(=O)(=O)NC(=O)CC[n+]1ccc(-c2ncccn2)cn1", "100%"],
  ["O=C(O)CC[n+]1ccc(-c2ncccc2Cl)cn1", "30%"],
  ["CN(C)c1cnc(-c2cc[n+](CCC(=O)[O-])nc2)nc1", "30%"]
]}

====

Each entry below carries its reported pest or weed control at 500 g/ha.
- System: Euphorbia heterophylla (EPHHL)
- Protocol Description: Post-emergence efficacy, Method A
- Format: in vivo
- Conditions Used: Euphorbia heterophylla, post-emergence, 312 h; Application Rate 500 g/Ha; evaluated after 13 days; Method A; read-out: Control of weed species after post-emergence application, EPHHL (100=total damage to plant; 0=no damage to plant)
Property: pest or weed control at 500 g/ha (%)

{"columns": ["Compound", "Value Unit", "Assay Result"],
 "data": [
  ["OCCC[n+]1ccc(-c2ncccn2)cn1 [Compound A206]", "%", 60],
  ["Cc1c[n+](CCC(=O)O)ncc1-c1ncccn1 [Compound A153]", "%", 40],
  ["COC(=O)C(C)[n+]1ccc(-c2ncccn2)cn1 (stereo not drawn) [Compound A192]", "%", 40],
  ["Cc1cc(-c2ncccn2)cn[n+]1CCS(=O)(=O)[O-] [Compound A212]", "%", 100],
  ["Cc1cnc(-c2cc[n+](CCC(=O)O)nc2)c(F)c1 [Compound A178]", "%", 40],
  ["COC(=O)CC[n+]1ccc(-c2ccncc2)cn1 [Compound A203]", "%", 50],
  ["O=C(O)CC[n+]1ccc(-c2ncc(Cl)c(=O)[nH]2)cn1 [Compound A161, 2,2,2-trifluoroacetate]", "%", 50],
  ["O=S(=O)([O-])OCC[n+]1ccc(-c2ncccn2)cn1 [Compound A194]", "%", 70],
  ["O=C([O-])CCC[n+]1ccc(-c2ncccn2)cn1 [Compound A220]", "%", 90]
]}

====

Each entry below carries its reported Post-emergence dessication efficacy, GOSHI.
- Test system: Gossypium hirsutum (GOSHI)
- Protocol Description: Pre-harvest desiccation of crop plants
- Assay type: in vivo
- Conditions Used: Table E; 300 g/Ha; evaluated after 7 and 14 days (which not stated); 100=total damage to plant, 0=no damage
Property: Post-emergence dessication efficacy, GOSHI

{"columns": ["Structure String", "Assay Result"],
 "data": [
  ["O=C(O)CC[n+]1ccc(-c2ccncn2)cn1.[Cl-]", 100],
  ["O=S(=O)([O-])CC[n+]1ccc(-c2ncccn2)cn1", 98],
  ["O=S(=O)([O-])CC[n+]1ccc(-c2cccnn2)cn1", 98],
  ["O=C(O)CC[n+]1ccc(-c2ncccn2)cn1.[Cl-]", 100]
]}

====

- Tested on: Chenopodium album (CHEAL)
- Protocol Description: Post-emergence efficacy, Method A
- Assay type: in vivo
- Conditions Used: Chenopodium album, post-emergence, 312 h; Application rate 500 g/Ha; evaluated after 13 days; 100=total damage to plant, 0=no damage to plant; read-out: Control of weed species after post-emergence application, CHEAL

{"columns": ["Compound", "Target Of Assay", "pest or weed control at 500 g/ha, %"],
 "data": [
  ["O=S(=O)([O-])CC[n+]1ccc(-c2ncc(F)cc2F)cn1 [Compound A70]", "Chenopodium album (CHEAL)", 70],
  ["O=S(=O)([O-])CC[n+]1ccc(-c2ccc(C(F)(F)F)nn2)cn1 [Compound A122]", "Chenopodium album (CHEAL)", 100],
  ["CNC(=O)c1cnc(-c2cc[n+](CCC(=O)[O-])nc2)nc1 [Compound A93]", "Chenopodium album (CHEAL)", 80],
  ["Cc1c[n+](CCS(=O)(=O)[O-])ncc1-c1ncccn1 [Compound A87]", "Chenopodium album (CHEAL)", 30],
  ["COc1cc(C)nc(-c2cc[n+](CCC(=O)[O-])nc2)n1 [Compound A105]", "Chenopodium album (CHEAL)", 20],
  ["O=S(=O)([O-])CC[n+]1ccc(-c2ncc(C(F)(F)F)cn2)cn1 [Compound A24]", "Chenopodium album (CHEAL)", 70],
  ["CC(=O)c1ccnc(-c2cc[n+](CCS(=O)(=O)[O-])nc2)n1 [Compound A49]", "Chenopodium album (CHEAL)", 80],
  ["O=C(O)CC[n+]1ccc(-c2ccc(C(F)(F)F)nn2)cn1 [Compound A126]", "Chenopodium album (CHEAL)", 80],
  ["O=C(O)CC[n+]1ccc(-c2ccnc(C(F)(F)F)n2)cn1 [Compound A118]", "Chenopodium album (CHEAL)", 80]
]}
